Hello, the source for this data is patent US9115133B2, in case you need it.

# assayed_target: Recombinant JAK3 (Amino acids 781-1124) (Homo sapiens)
# Construct: JAK3 (Amino acids 781-1124; NM_000215.3)
# Sequence (P52333 781-1124): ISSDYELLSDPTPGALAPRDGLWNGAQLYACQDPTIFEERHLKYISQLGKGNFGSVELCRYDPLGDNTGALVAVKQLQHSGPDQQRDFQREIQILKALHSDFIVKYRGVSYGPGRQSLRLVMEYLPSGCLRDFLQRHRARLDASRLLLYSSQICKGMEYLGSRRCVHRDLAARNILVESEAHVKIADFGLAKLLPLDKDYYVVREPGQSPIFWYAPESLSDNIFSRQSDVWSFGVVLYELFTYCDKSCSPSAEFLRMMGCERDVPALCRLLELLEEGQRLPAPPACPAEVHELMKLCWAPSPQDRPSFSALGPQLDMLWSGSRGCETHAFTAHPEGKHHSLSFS
# assay_remarks: Kinase-Glo Luminescent Kinase Assay, recombinant JAK3
# run_parameters: 200 μg/ml Poly Glu-Tyr (4:1), ATP 1 uM, 90 min room temperature, luminescence
Reported IC50 values follow for various molecules

{"molecule": "O=C(CC(F)(F)F)N1CCC(c2ccnc3cnc4[nH]ccc4c23)C1 (stereo not drawn) [Ex. 15]", "result": "> 20 nM"}
{"molecule": "CN(C(=O)C1CCCN(c2ccnc3cnc4[nH]ccc4c23)C1)C1CC1 (stereo not drawn) [Ex. 79]", "result": "> 20 nM"}
{"molecule": "O=C(CC(F)(F)F)N1CCCC(c2ncnc3cnc4[nH]ccc4c23)C1 (stereo not drawn) [Ex. 24]", "result": "> 20 nM"}
{"molecule": "N#CCS(=O)(=O)N1CC[C@@H](c2ccnc3cnc4[nH]ccc4c23)C1 [Ex. 16B]", "result": "> 20 nM"}
{"molecule": "O=C(CC(F)(F)F)N1CCC[C@H](c2ccnc3cnc4[nH]ccc4c23)C1 [Ex. 4A]", "result": "1 to 20 nM"}

Ask: # input molecule: O=S(=O)(CC(F)(F)F)NC1CCN(c2ccnc3cnc4[nH]ccc4c23)C1 (stereo not drawn) [Ex. 90] ; wanted: its IC50
Reply: 1 to 20 nM

Ask: # input molecule: CC(C)C(=O)N1CCCC(c2ncnc3cnc4[nH]ccc4c23)C1 (stereo not drawn) [Ex. 22] ; wanted: its IC50
Reply: > 20 nM

Ask: # input molecule: CC(C)(C)OC(=O)NC1CCN(c2ccnc3cnc4[nH]ccc4c23)C1 (stereo not drawn) [Comp. 124] ; wanted: its IC50
Reply: > 20 nM

Ask: # input molecule: O=C(CC(F)(F)F)NC1CCCN(c2ccnc3cnc4[nH]ccc4c23)C1 (stereo not drawn) [Ex. 87] ; wanted: its IC50
Reply: > 20 nM
